Tested on: HS 578T breast
Experiment: NCI-60 one-dose screen, 48 h (100 = growth as untreated, 0 = no growth, -100 = all killed)
Details: 10 µM unless noted
This is part of a sample that, as a whole, favours compounds with a hit. Of some 83,000 tested, about 20% had one in any assay.
Rule: growth under 90% gives N, otherwise Y.

Prompt: API: above_or_equal(metric=growth, cutoff=90%) for item "Cc1cccc(C)c1Nc1nnc(-c2ccc(F)cc2)o1"
Completion: Y

Prompt: API: above_or_equal(metric=growth, cutoff=90%) for item "CCOC(=O)/C(=C/c1c(-c2ccccc2)[nH]c2ccccc12)C(=O)c1ccc(Cl)cc1"
Completion: N

Prompt: API: above_or_equal(metric=growth, cutoff=90%) for item "COC(=O)CCc1cc(O)c2c(c1)[C@@H](C(=O)OC)[C@H](c1ccc(O)c(O)c1)O2"
Completion: N

Prompt: API: above_or_equal(metric=growth, cutoff=90%) for item "CCOC(=O)c1c(C)nc2c(c1N)/C(=C/c1cccs1)C(=O)N2Cc1ccccc1"
Completion: Y

Prompt: API: above_or_equal(metric=growth, cutoff=90%) for item "C=C1C(=O)O[C@H]2[C@H]1CC/C(COC(=O)n1ccnc1)=C\CC[C@@]1(C)O[C@@H]21"
Completion: Y

Prompt: API: above_or_equal(metric=growth, cutoff=90%) for item O=C1CC23OC4ON=C(Br)C4C2C(O)c2ccccc2N13 (stereo not drawn)
Completion: Y

Prompt: API: above_or_equal(metric=growth, cutoff=90%) for item "Nc1c(C(=O)Nc2ccccn2)sc2nc3c(cc12)CCCCC3"
Completion: N

Prompt: API: above_or_equal(metric=growth, cutoff=90%) for item O=C1CC23OC(C(O)c4ccccc4N12)C1C(c2ccccc2)=NOC13 (stereo not drawn)
Completion: N

Prompt: API: above_or_equal(metric=growth, cutoff=90%) for item "N#Cc1ccc(Oc2ccc3ccc(=O)oc3c2)cc1"
Completion: Y

Prompt: API: above_or_equal(metric=growth, cutoff=90%) for item "CC(=O)[C@@H]1CC[C@]2(C(=O)O)CC[C@]3(C)[C@H](CC[C@@H]4[C@@]5(C)Cc6c([nH]c7ccccc67)C(C)(C)[C@@H]5CC[C@]43C)[C@@H]12"
Completion: N

Prompt: API: above_or_equal(metric=growth, cutoff=90%) for item "NCCCn1c2c(c3cc(-c4ccn[nH]4)ccc3c1=O)C(=O)c1ccccc1-2"
Completion: N

Prompt: API: above_or_equal(metric=growth, cutoff=90%) for item "COc1ccc(NC(=O)Nc2ccc(Nc3nc(C)cc(Nc4ccc(C)cc4)n3)cc2)cc1"
Completion: N

Prompt: API: above_or_equal(metric=growth, cutoff=90%) for item "C=C(C)[C@@H]1CC[C@]2(C(=O)N3CCN(C)CC3)CC[C@]3(C)[C@H](CC[C@@H]4[C@@]5(C)C/C(=C/c6ccco6)C(=O)C(C)(C)[C@@H]5CC[C@]43C)[C@@H]12"
Completion: N

Prompt: API: above_or_equal(metric=growth, cutoff=90%) for item CC1(c2ccccc2Cl)NC(=O)NC1=O (stereo not drawn)
Completion: Y

Prompt: API: above_or_equal(metric=growth, cutoff=90%) for item "COc1ccc2nc(-c3ccc(OC)c(OC)c3)cc(-c3nnc(SCC(=O)Nc4ccc(/C(C)=N\O)cc4)n3-c3ccccc3)c2c1"
Completion: N

Prompt: API: above_or_equal(metric=growth, cutoff=90%) for item COC(=O)/C=C/c1cc(OC(C)=O)c2c(c1)C(C(=O)OC)C(c1ccc(OC(C)=O)c(OC(C)=O)c1)O2 (stereo not drawn)
Completion: N

Prompt: API: above_or_equal(metric=growth, cutoff=90%) for item Cc1ccc(C2CC(c3ccc(Nc4nc(NCCO)nc(NCCO)n4)cc3)=NN2c2ccc(Cl)cc2)cc1 (stereo not drawn)
Completion: N

Prompt: API: above_or_equal(metric=growth, cutoff=90%) for item "O=c1cc(/C=N\Nc2nc(-c3ccc(Cl)cc3Cl)cs2)c2cc(Cl)ccc2o1"
Completion: Y

----------
Please provide measured growth for the entries that follow.
Tested on: NCI-H322M lung
Assay: NCI-60 one-dose screen, 48 h (100 = growth as untreated, 0 = no growth, -100 = all killed)
Conditions: 10 µM unless noted
The panel holds about 83,000 compounds, 20% with a hit somewhere; the sample as a whole holds those more often.
Give the number; % is assumed, so skip it.

compound "O=C(CCCC(=O)Nc1ccc(-n2nnc3cc(Cl)c(Cl)cc32)cc1)Nc1ccc(-n2nnc3cc(Cl)c(Cl)cc32)cc1" , growth observed: 59.9

compound FC(F)(F)c1ccc2c(Nc3cccc(C4CC(c5ccccc5)=NN4c4ccc(Cl)cc4)c3)ccnc2c1 (centres undefined) , growth observed: 68.7

compound "O=C1C(=O)c2c(nc3ccc(C(F)(F)F)cn23)-c2ccccc21" , growth observed: -94.8

compound "Cc1cc(C)cc(Nc2nccc(-c3c(-c4ccc(F)cc4)ncn3C3CCNCC3)n2)c1" , growth observed: 32.2

compound "COc1cc(/C=C/CO)cc(OC)c1O[C@@H]1O[C@H](CO)[C@@H](O)[C@H](O)[C@H]1O" , growth observed: 107

compound "Cc1nc(C)c(C)nc1C" , growth observed: 103

compound "Cc1cccc2nc3c(n12)C(=O)C(=O)c1ccccc1-3" , growth observed: 90

compound "Nc1ccc(C(=O)Nc2cccc(C(=O)Nc3ccc4c(O)c(N=Nc5ccc(N=Nc6ccc(S(=O)(=O)O)cc6)cc5)c(S(=O)(=O)O)cc4c3)c2)cc1" , growth observed: 101

compound COC1=CC=CC2(OC)C3(O)CCCc4cccc(c43)N3C(=O)COC132 (centres undefined) , growth observed: 101

----------
Tested on: HCC-2998 colon
Test: NCI-60 one-dose screen, 48 h (100 = growth as untreated, 0 = no growth, -100 = all killed)
Details: 10 µM unless noted
This is part of a sample that, as a whole, favours compounds with a hit. Of some 83,000 tested, about 20% had one in any assay.
reportedProperty: growth (%)
Give the number; % is assumed, so skip it.

compound COc1ccc(-c2nc(C#N)c(NCC(c3ccc(Cl)cc3)N3CCCCC3)o2)cc1 (stereo not given) , growth observed: 107

compound O=C1CCC23OC(C(O)c4ccccc4N12)C1C(Br)=NOC13 (stereo not given) , growth observed: 100

compound "COc1ccc(-c2[nH]c3ccc(OC)cc3c2C=C(C#N)C#N)cc1" , growth observed: 50.3

compound O=C1NN(c2ccccc2)C(c2ccc(Cl)cc2)N2CCC[C@H]12 (stereo not given in full) , growth observed: 88.1

compound "O=c1nc(-c2ccccc2)c2cc(-c3ccc(N4CCCC4)nc3)ccc2[nH]1" , growth observed: 80.5

----------
Tested on: PC-3 prostate
Experiment: NCI-60 one-dose screen, 48 h (100 = growth as untreated, 0 = no growth, -100 = all killed)
Details: 10 µM unless noted
Compounds without any hit were thinned out: in the full panel of roughly 83,000, 20% have a hit.
reportedProperty: growth (%)
Give the number; % is assumed, so skip it.

compound "COc1cccc(NC(=O)Nc2ccc(Oc3ncnc4[nH]c(C)c(C)c34)cc2)c1" , growth observed: 80.8

compound "O=c1c2ccccc2oc2ccc(OCCCCCCN3CCCCCC3)cc12" , growth observed: 34

compound CCCS(=O)(=O)Nc1ccc(F)c(C(=O)c2c[nH]c3ncc(-c4ccc(OCCCC5CCCCN5)nc4)cc23)c1F (stereo unspecified) , growth observed: 53

compound "Cn1c2c(c3ccc(-c4ccn[nH]4)cc3c1=O)C(=O)c1ccccc1-2" , growth observed: 63.2

compound "COc1ccc2c(c1)/C(=C1\S/C(=N/c3nnc(C)s3)NC1=O)C(=O)N2Cc1ccc(Cl)cc1" , growth observed: 36.6

compound "CNC(=O)c1cc(Oc2ccc3c(c2)sc2nc(-c4ccc(NC(C)=O)cc4)cn23)ccn1" , growth observed: 36.6

compound "COc1ccc(NC(=O)c2sc3nc(C)c(C(C)=O)cc3c2N)cc1" , growth observed: 92

compound "CC(=O)[C@@H]1CC[C@]2(C(=O)O)CC[C@]3(C)[C@H](CC[C@@H]4[C@@]5(C)Cc6c([nH]c7ccccc67)C(C)(C)[C@@H]5CC[C@]43C)[C@@H]12" , growth observed: 40.7

compound "O=C(NC[C@H](O)CN1CCc2ccccc2C1)c1cc(NC2COC2)ncn1" , growth observed: 107

compound COc1ccc2c(c1)C1(C(=O)N2)C(C#N)=C(c2ccccc2)Nc2c1c(-c1ccccc1)nn2-c1ccccc1 (stereo unspecified) , growth observed: 7.28

compound "[2H]c1nc(Nc2ncc3cc(C(=O)N(C)C)n(C4CCCC4)c3n2)c([2H])c([2H])c1N1C([2H])([2H])C([2H])([2H])NC([2H])([2H])C1([2H])[2H]" , growth observed: 54.6

compound "C=C(C)[C@@H]1CCC=C2CC[C@]3(C)[C@H](CC[C@@H]4[C@@]5(C)CCCNC(C)(C)[C@@H]5CC[C@]43C)[C@H]21" , growth observed: 38.2

compound "COc1cc(/C=N/Nc2nc(-c3ccc(F)cc3)c(C#N)c(N3CCOCC3)n2)ccc1O" , growth observed: 96.4

compound "C[C@@H]1C(=O)[C@@H]2C[C@@H](O)[C@@H](O)C[C@]2(C)[C@H]2CC[C@@]3(C)C(=C12)CC[C@@H]3[C@@](C)(O)[C@H](O)CCC(C)(C)O" , growth observed: 96.4

compound "C[C@]12CC[C@@H]3c4ccc(O)cc4CC[C@H]3[C@@H]1C[C@H](O)C2" , growth observed: 80

compound "CCN1CCC[C@H]1c1cc(O)c2c(c1OC)C[C@H]1C[C@H]3[C@H](N)C(=O)C(C(N)=O)=C(O)[C@@]3(O)C(=O)C1=C2O" , growth observed: 3.27
